Data origin, for the record: patent US20180339041A1

# tested.on: T1, C-terminally FLAG-tagged human Gas6 recombinant protein (hGas6-F) (human, UniProt Q14393 31-678, gamma-carboxylated glutamic acid residues in the Gla domain (producer cells co-express rat VKOR and human GGCX); positions not given)
# T1 construct: also called human Gas6-F; human Gas6 protein
# T1 sequence: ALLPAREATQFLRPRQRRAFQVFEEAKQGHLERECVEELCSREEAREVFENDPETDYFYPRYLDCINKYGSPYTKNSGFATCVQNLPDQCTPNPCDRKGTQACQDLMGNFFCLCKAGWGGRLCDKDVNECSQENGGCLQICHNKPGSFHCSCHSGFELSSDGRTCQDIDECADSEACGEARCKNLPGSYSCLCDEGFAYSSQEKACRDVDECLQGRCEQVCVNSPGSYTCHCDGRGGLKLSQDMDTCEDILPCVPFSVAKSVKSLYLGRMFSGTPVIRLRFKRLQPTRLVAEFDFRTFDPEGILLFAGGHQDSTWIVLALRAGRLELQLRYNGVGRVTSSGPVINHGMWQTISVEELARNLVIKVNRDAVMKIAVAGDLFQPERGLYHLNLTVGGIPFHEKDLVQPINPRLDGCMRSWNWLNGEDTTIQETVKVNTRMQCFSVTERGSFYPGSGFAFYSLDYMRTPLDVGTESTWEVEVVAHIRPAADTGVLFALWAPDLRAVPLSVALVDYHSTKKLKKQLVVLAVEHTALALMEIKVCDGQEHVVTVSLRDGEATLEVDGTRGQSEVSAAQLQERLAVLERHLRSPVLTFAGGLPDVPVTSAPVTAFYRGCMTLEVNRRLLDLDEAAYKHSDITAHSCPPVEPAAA
# test.name: SPR Biacore T100, captured antibody, Gas6 analyte, retest
Kindly state kon for each of the entries shown.
A number alone suffices; assume M⁻¹ s⁻¹.

Enquiry: So what does the record say about kon for hzKM5321 LV7bHV0 antibody (antibody, V domains shown, Humanized; variant human IgG4 constant region (EU S228P, L235E, R409K), human kappa; also called B-10; LV7bHV0) VH: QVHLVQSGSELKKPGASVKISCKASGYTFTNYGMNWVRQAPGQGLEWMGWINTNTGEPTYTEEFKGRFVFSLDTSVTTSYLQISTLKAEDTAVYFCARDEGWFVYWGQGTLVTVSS VL: ETTVTQSPSSLSVSVGDRVTITCITSTDIDDDMNWYQQKPGKAPKLLISEGNTLRPGVPSRFSSSGSGTDFTFTISSTQPEDFADYYCLQTDSVPLTFGQGTKLEIK ?
Return: 353000

Enquiry: Do the same for hzKM5320 LV5HV2 antibody (antibody, V domains shown, Humanized; variant human IgG4 constant region (EU S228P, L235E, R409K), human kappa; also called kzKM5320 LV5HV2; A-20) VH: QVQLVQSGSELKKPGASVKVSCKASGYTFTNYGMNWVRQAPGQGLEWMGWINTETGEPTYSDDFKGRFVFSLDTSVSTAYLQISSLKAEDTATYFCAREDGYYGTLDYWGQGTTVTVSS VL: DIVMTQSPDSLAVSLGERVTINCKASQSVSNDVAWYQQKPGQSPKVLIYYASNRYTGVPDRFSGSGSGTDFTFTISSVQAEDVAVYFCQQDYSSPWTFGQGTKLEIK please
Return: 152000

Enquiry: Also need KM5320 chimeric antibody (antibody, V domains shown, also called KM5320 chimera; A-01) VH: QIQLVQSGPELKKPGETVKISCKASGYTFTNYGMNWVKQAPGKGLKWMGWINTETGEPTYSDDFKGRFAFSLETSATTAYLQINNLRNEDMATYFCAREDGYYGTLDYWGQGTSVTVSS VL: SIVMTQTPKFLLVSAGDRVTITCKASQSVSNDVAWYQQKPGQSPKVLIYYASNRYTGVPDRFTGSGYGTDFTFTISTVQAEDLAVYFCQQDYSSPWTFGGGTKLEIK , thanks.
Return: 186000

Enquiry: Now consider hzKM5320 LV1bHV0 antibody (antibody, V domains shown, Humanized; variant human IgG4 constant region (EU S228P, L235E, R409K), human kappa; also called A-04) VH: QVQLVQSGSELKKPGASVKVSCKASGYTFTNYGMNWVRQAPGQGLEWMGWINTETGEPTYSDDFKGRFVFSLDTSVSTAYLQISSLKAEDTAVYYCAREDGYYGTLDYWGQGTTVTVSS VL: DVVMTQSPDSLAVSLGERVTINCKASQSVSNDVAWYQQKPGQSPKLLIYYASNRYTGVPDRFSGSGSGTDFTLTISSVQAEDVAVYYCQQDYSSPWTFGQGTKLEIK and answer again.
Return: 90000
